System: phospho-Tyr627 GAB1
Measurement Description: Inhibition of GAB1 Y627 phosphorylation in T47D cells
Type: cell-based, human
Applied Conditions: 20 µM, 4 hr, HGF stimulated
Protocol: For all biological assays, hit compounds were added at 20 µM concentration directly into the culture media of the cells for 4 hr following a 16 hr incubation of T47D cells without FBS. Cells were stimulated with HGF for 20 min at 50 ng/ml. […] The plate was read using a Sector Imager 2400A instrument (Meso Scale Discovery protein profiling system, Gaithersburg, MD). […]
Please enter t where % pGAB1 inhibition is greater than or equal to 50%, and f where it is lower.

Please review the following examples before continuing.
Molecule: CCCCCCCCCCCCc1ccc(S(=O)(=O)Nc2nncs2)cc1 [GAB-020]
Assayed Target: phospho-Tyr627 GAB1
Assigned Category: t

Molecule: Cc1nnc(NS(=O)(=O)c2ccc(NS(=O)(=O)c3ccc4ccccc4c3)cc2)s1 [GAB-014]
Assayed Target: phospho-Tyr627 GAB1
Assigned Category: f

Molecule: Cc1onc(-c2ccccc2)c1-c1nc(CSc2nc3ccccc3[nH]2)no1 [GAB-010]
Assayed Target: phospho-Tyr627 GAB1
Assigned Category: t

Molecule: CS(=O)(=O)CCSc1ncccc1C(=O)Sc1ccc(Cl)cc1Cl [GAB-007]
Assayed Target: phospho-Tyr627 GAB1
Assigned Category: t

Alright, here's another molecule for you.
Query: API: above_or_equal(metric=% pGAB1 inhibition, cutoff=50%) for item Cc1cc2ncc(-c3cnc(SCCS(=O)(=O)c4ccc(Cl)cc4)nc3)c(C)n2n1 [GAB-006]
Result: f

----------
Assayed Target: human IRS1 PH domain (Homo sapiens, UniProt P35568)
Sequence (P35568 12-115 limits assumed): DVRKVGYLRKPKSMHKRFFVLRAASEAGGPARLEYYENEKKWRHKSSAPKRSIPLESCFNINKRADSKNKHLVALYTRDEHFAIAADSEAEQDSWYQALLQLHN
Measurement Description: SPR direct binding to IRS1 PH domain
Applied Conditions: read-out: KD IRS1; SPR, immobilized PH domain GST-fusion; NB = No Binding
Metric Name: Kd (µM)
Enter your answer as a number in µM; do not include the unit.

For orientation, consider the following solved cases.
Compound: Cc1onc(-c2ccccc2)c1-c1nc(CSc2nc3ccccc3[nH]2)no1 [GAB-010]
Kd, µM: 0.12

Compound: Cn1cnc(S(=O)(=O)Nc2ccccc2SCCS(=O)(=O)c2ccc(Cl)cc2)c1 [GAB-002]
Kd, µM: 16.4

Query: Fill in: Kd on human IRS1 PH domain (Homo sapiens, UniProt P35568), entry CCCCCCCCCCCCc1ccc(S(=O)(=O)Nc2nnc(C(=O)OCC)s2)cc1 [GAB-017]
Result: 0.05

----------
List of % pGAB1 inhibition values.
Test system: phospho-Tyr627 GAB1
Measurement Description: Inhibition of GAB1 Y627 phosphorylation in T47D cells
Format: cell-based, human
Applied Conditions: 20 µM, 4 hr, HGF stimulated
Method: For all biological assays, hit compounds were added at 20 µM concentration directly into the culture media of the cells for 4 hr following a 16 hr incubation of T47D cells without FBS. Cells were stimulated with HGF for 20 min at 50 ng/ml. […] The plate was read using a Sector Imager 2400A instrument (Meso Scale Discovery protein profiling system, Gaithersburg, MD). […]
Enter your answer as a number in %; do not include the unit.

For orientation, consider the following solved cases.
Molecule: Cn1cnc(S(=O)(=O)Nc2ccccc2SCCS(=O)(=O)c2ccc(Cl)cc2)c1
% pGAB1 inhibition (%): 32

Molecule: Cn1c(Cc2ccsc2)nnc1SCC(=O)Nc1cc(Cl)cc(Cl)c1
% pGAB1 inhibition (%): 24

Molecule: CCCCCCCCCCCCCCCCCCOC[C@H](COP(=O)(O)OC1C(O)[C@@H](O)C(O)C[C@H]1O)OC (stereo partly shown) [DPIEL, reference compound]
% pGAB1 inhibition (%): 72

Below: the item to evaluate.
Query: Quote % pGAB1 inhibition reported for O=S(=O)(NCc1csc(-c2cccs2)n1)c1ccc(N2CCOCC2)nc1 please.
Result: 8

----------
Assayed Target: human GAB1 PH domain (Homo sapiens, UniProt Q13480)
Sequence (Q13480 5-116 limits assumed): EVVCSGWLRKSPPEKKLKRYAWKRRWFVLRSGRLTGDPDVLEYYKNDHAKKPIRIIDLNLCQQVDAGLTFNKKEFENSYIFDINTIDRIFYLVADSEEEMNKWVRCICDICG
Measurement Description: SPR direct binding to GAB1 PH domain
Applied Conditions: read-out: KD GAB1; SPR, immobilized PH domain GST-fusion; NB = No Binding
List of pKd values.
Expect pKd as a plain number equal to -log10 of the molar concentration.

For orientation, consider the following solved cases.
Compound: CCCCCCCCCCCCc1ccc(S(=O)(=O)Nc2nncs2)cc1
Numeric Value: 5.88

Compound: CCCCCCCCCCCCc1ccc(S(=O)(=O)Nc2nnc(C(=O)OCC)s2)cc1
Numeric Value: 6.17

Compound: CCCCCCCCCCCCCCCCCCOC[C@H](COP(=O)(O)OC1C(O)[C@@H](O)C(O)C[C@H]1O)OC (stereo partly drawn) [DPIEL, reference compound]
Numeric Value: 5.55

Below: the item to evaluate.
Query: Quote pKd reported for O=c1[nH]nc(SCc2csc(-c3ccccc3)n2)n1Cc1ccco1 please.
Result: 5.66

----------
Assayed Target: human GAB1 PH domain (Homo sapiens, UniProt Q13480)
Measurement Description: SPR direct binding to GAB1 PH domain
Applied Conditions: read-out: KD GAB1; SPR, immobilized PH domain GST-fusion; NB = No Binding
Metric Name: Kd (µM)
Enter your answer as a number in µM; do not include the unit.

Mol Smiles: CS(=O)(=O)CCSc1ncccc1C(=O)Sc1ccc(Cl)cc1Cl
Assayed Target: human GAB1 PH domain (Homo sapiens, UniProt Q13480)
Metric Name: Kd
Units Of Measure: µM
Numeric Value: 42.3

Mol Smiles: Cn1cnc(S(=O)(=O)Nc2ccccc2SCCS(=O)(=O)c2ccc(Cl)cc2)c1
Assayed Target: human GAB1 PH domain (Homo sapiens, UniProt Q13480)
Metric Name: Kd
Units Of Measure: µM
Numeric Value: 2.1

Below: the item to evaluate.
Query: Quote Kd reported for CCCCCCCCCCCCc1ccc(S(=O)(=O)Nc2nnc(CC(=O)OCC)s2)cc1 please.
Result: 0.9

----------
List of pKd values.
Assayed Target: human IRS1 PH domain (Homo sapiens, UniProt P35568)
Measurement Description: SPR direct binding to IRS1 PH domain
Applied Conditions: read-out: KD IRS1; SPR, immobilized PH domain GST-fusion; NB = No Binding
Expect pKd as a plain number equal to -log10 of the molar concentration.

Mol Smiles: CCCCCCCCCCCCc1ccc(S(=O)(=O)Nc2nnc(CC(=O)O)s2)cc1
Metric Name: pKd
Numeric Value: 7.30

Below: the item to evaluate.
Query: Quote pKd reported for CS(=O)(=O)CCSc1ncccc1C(=O)Sc1ccc(Cl)cc1Cl please.
Result: 5.80

----------
Assayed Target: human IRS1 PH domain (Homo sapiens)
Measurement Description: SPR direct binding to IRS1 PH domain
Applied Conditions: read-out: KD IRS1; SPR, immobilized PH domain GST-fusion; NB = No Binding
pKd: −log10 of the molar value.
Metric Name: pKd

For orientation, consider the following solved cases.
Molecule: Cn1c(Cc2ccsc2)nnc1SCC(=O)Nc1cc(Cl)cc(Cl)c1 [GAB-011]
Metric Name: pKd
Result: < 4.30

Molecule: Cc1noc(C)c1NC(=O)NCc1csc(-c2cccs2)n1 [GAB-009]
Metric Name: pKd
Result: < 4.30

Query: Quote pKd reported for Cc1nnc(NS(=O)(=O)c2ccc(NS(=O)(=O)c3ccc4ccccc4c3)cc2)s1 [GAB-014] please.
Result: < 4.30

Query: Quote pKd reported for CCCCCCCCCCCCc1ccc(S(=O)(=O)Nc2nnc(CC(=O)OCC)s2)cc1 [GAB-016] please.
Result: 6.82

Query: Quote pKd reported for O=c1[nH]nc(SCc2csc(-c3ccccc3)n2)n1Cc1ccco1 [GAB-004] please.
Result: < 4.30

----------
Assayed Target: human IRS1 PH domain (Homo sapiens, UniProt P35568)
Measurement Description: SPR direct binding to IRS1 PH domain
Applied Conditions: read-out: KD IRS1; SPR, immobilized PH domain GST-fusion; NB = No Binding
pKd: −log10 of the molar value.
Metric Name: pKd

For orientation, consider the following solved cases.
Compound: CS(=O)(=NS(=O)(=O)c1ccc(-c2ccccn2)s1)c1ccc(Cl)cc1 (stereo not drawn)
Result: < 4.30

Compound: Cc1cc2ncc(-c3cnc(SCCS(=O)(=O)c4ccc(Cl)cc4)nc3)c(C)n2n1
Result: < 4.30

Below: the item to evaluate.
Query: Quote pKd reported for O=C(O)c1ccccc1C(=O)Nc1ccccc1SCCS(=O)(=O)c1ccc(Cl)cc1 please.
Result: < 4.30
